Each recorded value in this set is attributed to patent US20220283175A1.

biological target: wild-type human carbonic anhydrase II (hCAII) protein (human, UniProt P00918 4-259); test: cell-based or functional assay
*: point of attachment. Benzoyl(4-SO2NH2) = NS(=O)(=O)c1ccc(C(=O)*)cc1
assayEndpoint: IC50 (µM), hCAII functional assay
Please reply with the bare figure in µM and do not write the unit itself.

{Benzoyl(4-SO2NH2)}-SAAAE-NH2 (SMILES C[C@H](NC(=O)[C@H](C)NC(=O)[C@H](CO)NC(=O)c1ccc(S(N)(=O)=O)cc1)C(=O)N[C@@H](C)C(=O)N[C@@H](CCC(=O)O)C(N)=O) [(SAB)SAAAE] :: 0.153
{Benzoyl(4-SO2NH2)}-AFAAE-NH2 (SMILES C[C@H](NC(=O)c1ccc(S(N)(=O)=O)cc1)C(=O)N[C@@H](Cc1ccccc1)C(=O)N[C@@H](C)C(=O)N[C@@H](C)C(=O)N[C@@H](CCC(=O)O)C(N)=O) [(SAB)AFAAE] :: 0.183
{Benzoyl(4-SO2NH2)}-EAAAE-NH2 (SMILES C[C@H](NC(=O)[C@H](C)NC(=O)[C@H](CCC(=O)O)NC(=O)c1ccc(S(N)(=O)=O)cc1)C(=O)N[C@@H](C)C(=O)N[C@@H](CCC(=O)O)C(N)=O) [(SAB)EAAAE] :: 0.0993

Let us move to another entry and its IC50 (µM), hCAII functional assay.
Would you mind telling me what IC50 (µM), hCAII functional assay value was observed for {Benzoyl(4-SO2NH2)}-AAAAE-NH2 (SMILES C[C@H](NC(=O)c1ccc(S(N)(=O)=O)cc1)C(=O)N[C@@H](C)C(=O)N[C@@H](C)C(=O)N[C@@H](C)C(=O)N[C@@H](CCC(=O)O)C(N)=O) [(SAB)AAAAE] ?
0.0484
